Assign pIC50 to each entry below.
# TESTED_TARGET: Steroidogenic factor 1 (Homo sapiens, UniProt Q13285)
# Sequence (Q13285 whole entry, the tested form may be a part): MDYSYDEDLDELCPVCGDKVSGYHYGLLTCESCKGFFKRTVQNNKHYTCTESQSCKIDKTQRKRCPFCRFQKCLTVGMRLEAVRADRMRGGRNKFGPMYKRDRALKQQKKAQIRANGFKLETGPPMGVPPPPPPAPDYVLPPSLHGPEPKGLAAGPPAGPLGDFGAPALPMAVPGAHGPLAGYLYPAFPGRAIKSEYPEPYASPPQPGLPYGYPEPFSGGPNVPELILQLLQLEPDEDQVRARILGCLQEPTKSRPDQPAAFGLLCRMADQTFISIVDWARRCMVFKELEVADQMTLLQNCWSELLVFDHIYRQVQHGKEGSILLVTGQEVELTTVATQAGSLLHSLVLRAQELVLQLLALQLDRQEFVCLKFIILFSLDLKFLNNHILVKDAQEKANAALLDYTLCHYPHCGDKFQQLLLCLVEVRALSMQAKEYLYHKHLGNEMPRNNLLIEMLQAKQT
# ASSAY_METHOD_TEXT: blockers of SF-1 LBD reporter transcription – cell-based, CHO-K1, Gal4-SF-1 LBD, luciferase luminescence, dose response (AID 600)
Notebook: values listed as pIC50 are -log10 of the concentration (mol/L).

Req: So what does the record say about pIC50 for O=C(CC=Nc1ccc2c(c1)OCO2)c1ccccn1 ?
Resp: 4.87

Req: Consider next the compound COc1cc2nc(S)n3nc(CCn4nc(C)cc4C)nc3c2cc1OC in the same way.
Resp: 5.30

Req: Consider next the compound CCN1C=CC(=C2C(=O)c3ccccc3C2=O)C=C1 in the same way.
Resp: 6.02

Req: Consider next the compound c1ccc(-c2cn3nc(-c4ccccc4)sc3n2)cc1 in the same way.
Resp: 5.70

---

# TESTED_TARGET: Steroidogenic factor 1 (Homo sapiens, UniProt Q13285)
# ASSAY_METHOD_TEXT: blockers of SF-1 LBD reporter transcription – cell-based, CHO-K1, Gal4-SF-1 LBD, luciferase luminescence, dose response (AID 600)
ENDPOINT_LABEL: IC50 (µM)
Report as a plain number; the unit µM is understood.

Req: So what does the record say about IC50 for O=C(CC=Nc1cccc(F)c1)c1ccc2c(c1)OCO2 ?
Resp: 4.65

Req: Consider next the compound CC(C)(C)c1ccc(-c2cc(N)[nH]n2)cc1 in the same way.
Resp: 5.25

Req: Consider next the compound c1ccc(-c2noc(-c3ccc4ccccc4c3)n2)cc1 in the same way.
Resp: 8.89

Req: Consider next the compound CC[C@H]1CN2CCc3cc(OC)c(OC)cc3[C@@H]2C[C@@H]1C[C@H]1NCCc2cc(OC)c(OC)cc21 in the same way.
Resp: 0.202

Req: Consider next the compound COCCn1c(C)cc(C(=O)CSc2nnc(C)s2)c1C in the same way.
Resp: 5.45

Req: Consider next the compound CN=c1scc(C)n1N=Cc1ccc(O)cc1O in the same way.
Resp: 15.2

Req: Consider next the compound O=C(CC=Nc1ccccn1)c1ccc(Cl)cc1 in the same way.
Resp: 6.09

Req: Consider next the compound Cc1ccc(S(=O)(=O)Nc2cccc3ncccc23)s1 in the same way.
Resp: 5.75

Req: Consider next the compound O=C(O)c1cccc(COc2ccccc2Cl)c1 in the same way.
Resp: 0.69

Req: Consider next the compound Cc1ccc2nc(-c3ccccc3)cn2c1 in the same way.
Resp: 1.96

Req: Consider next the compound COCCNC(=O)CSCc1nc(-c2ccc(SC)cc2)oc1C in the same way.
Resp: 0.595

Req: Consider next the compound O=NC1c2cc(S(=O)(=O)N3CCCCC3)ccc2-c2ccc(S(=O)(=O)N3CCCCC3)cc21 in the same way.
Resp: 1.51

Req: Consider next the compound O=C(NC1CC1)c1ccc(-c2nc3ccccc3s2)s1 in the same way.
Resp: 2.81

Req: Consider next the compound Cc1ccc2[nH]c3c(N4CCN(Cc5ccc6c(c5)OCO6)CC4)ncnc3c2c1 in the same way.
Resp: 7.31

Req: Consider next the compound Clc1ccc(-c2nc(-c3ccccn3)no2)cc1Cl in the same way.
Resp: 5.62

Req: Consider next the compound CCc1ccc(-c2cn3nc(C)c(C)nc3n2)cc1 in the same way.
Resp: 3.21

Req: Consider next the compound Cc1cc(C)n(-c2ccc3cccc(NS(C)(=O)=O)c3n2)n1 in the same way.
Resp: 3.42

Req: Consider next the compound COc1ccccc1-c1nnc(Nc2nc3c(OC)cccc3s2)o1 in the same way.
Resp: 6.52
